The reported numbers originate from paper PMC9324194.

# TESTED SYSTEM: Cy3-APE1 (human)
# METHOD SUMMARY: FRET titration
# CONDITION NOTES: N1 = tetrahydrofuran (THF), EMSA: 2 uM protein and DNA, 20 mM potassium phosphate pH 7.0, 50 mM NaCl, 5 mM MgCl2, 2 mM DTT, 0.01% Tween-20, 30 min room temperature, gel at 4 °C
ENDPOINT NAME: pKd
Scale for pKd: -log10 of concentration given in mol/L; no unit attached.

**Q:** Please look up its pKd: NCGGTCGATCGTAAGATCGACCGTGCGCTGGAGCTTGCTCCAGCGC [Cy5-P (Cy5-labelled product)]
**A:** 8.30
